inhibition at 1 µM listing for selected compounds.
Tested on: pERK level in H358 cells
Experiment: pERK and ERK protein content assay in H358 cells (ELISA)
Format: cell-based
Conditions: Homo sapiens, NCI-H358, compound 1 μM, 24 h, pERK/ERK ratio compared with DMSO group, read-out: Inhibition rate (%) of pERK level

Smiles representation | inhibition at 1 µM
C=CC(=O)N1CC2(CCN(c3nc(N4CC[C@@H](N5CC[C@H](OC)C5)C4)nc4c(OCC(F)(F)F)c(-c5c(C)ccc6[nH]ncc56)c(C5CC5)cc34)CC2)C1 | > 90%
C=CC(=O)N1CC2(CCN(c3nc(OC4CN(C)C4)nc4c(OCC(F)(F)F)c(-c5c(C)ccc6[nH]ncc56)c(C5CC5)cc34)CC2)C1 | > 90%
C=CC(=O)N1CC2(CCN(c3nc(N4CCC(N5CCCC5)CC4)nc4c(OCC(F)(F)F)c(-c5c(C)ccc6[nH]ncc56)c(C5CC5)cc34)CC2)C1 | > 90%
C=CC(=O)N1CC2(CCN(c3nc(N4CC(N5CC(S(C)(=O)=O)C5)C4)nc4c(OCC(F)(F)F)c(-c5c(C)ccc6[nH]ncc56)c(C5CC5)cc34)CC2)C1 | 50 to 90%
C=CC(=O)N1CC2(CCN(c3nc(N4CC(N5CCC5)C4)nc4c(OCC(F)(F)F)c(-c5c(C)c(F)cc6[nH]ncc56)c(C=C)cc34)CC2)C1 | > 90%
C=C(F)C(=O)N1CC2(CCN(c3nc(OC4CC5(C4)CN(CCOC)C5)nc4c(OCC(F)(F)F)c(-c5c(C)ccc6[nH]ncc56)c(C5CC5)cc34)CC2)C1 | > 90%
C=CC(=O)N1CC2(CCN(c3nc(N4CC[C@H](N5CC(F)(F)C5)C4)nc4c(OCC(F)(F)F)c(-c5c(C)ccc6[nH]ncc56)c(C5CC5)cc34)CC2)C1 | 50 to 90%
C=CC(=O)N1CC2(CCN(c3nc(N(C)CCN4CC(O)C4)nc4c(OCC(F)(F)F)c(-c5c(C)ccc6[nH]ncc56)c(C5CC5)cc34)CC2)C1 | > 90%
C=CC(=O)N1CC2(CCN(c3nc(N4CC[C@H](N5CCC(F)(F)C5)C4)nc4c(OCC(F)(F)F)c(-c5c(C)ccc6[nH]ncc56)c(C5CC5)cc34)CC2)C1 | > 90%
C=CC(=O)N1CC2(CCN(c3nc(OC4CCN(CCOC)CC4)nc4c(OCC(F)(F)F)c(-c5c(C)ccc6[nH]ncc56)ccc34)CC2)C1 | 50 to 90%
C=CC(=O)N1CC2(CCN(c3nc(N4CC5(CC(O)C5)C4)nc4c(OCC(F)(F)F)c(-c5c(C)ccc6[nH]ncc56)c(C5CC5)cc34)CC2)C1 | > 90%

----------
Assay: Pharmacokinetic evaluation in mice
Format: in vivo, male ICR mice
Details: male, ICR, mouse, plasma, iv, 2 mg/kg

Compound | clearance (mL/min/kg)
C=CC(=O)N1CC2(CCN(c3nc(N4CC(N5CCCC5)C4)nc4c(OCC(F)(F)F)c(-c5c(C)ccc6[nH]ncc56)c(C5CC5)cc34)CC2)C1 [Compound 171] | 1.26
C=CC(=O)N1CC2(CCN(c3nc(OC4CC5(CCN(CCOC)CC5)C4)nc4c(OCC(F)(F)F)c(-c5c(C)ccc6[nH]ncc56)c(C5CC5)cc34)CC2)C1 [Compound 131] | 1.87
C=CC(=O)N1CC2(CCN(c3nc(N4CC(N5CCC5)C4)nc4c(OCC(F)(F)F)c(-c5c(C)ccc6[nH]ncc56)c(C5CC5)cc34)CC2)C1 [Compound 142] | 0.642
C=CC(=O)N1CC2(CCN(c3nc(OC4CCN(CCOC)CC4)nc4c(OCC(F)(F)F)c(-c5c(C)ccc6[nH]ncc56)c(C5CC5)cc34)CC2)C1 [B, reference compound] | 4.2

----------
Test system: H358 cells
Test: Antiproliferative activity against H358 cells (Cell Titer Glow, ultra-low attachment plate)
Assay type: cell-based
Details: Homo sapiens, NCI-H358, 72 h, three days after addition of compound

Compound | IC50 [nM]
C=CC(=O)N1CC2(CCN(c3nc(N4CC(N5CCC5)C4)nc4c(OCC(F)(F)F)c(-c5c(C)ccc6[nH]ncc56)c(C5CC5)cc34)CC2)C1 | 2.5
C=CC(=O)N1CC2(CCN(c3nc(N4CC(N5CCCC5)C4)nc4c(OCC(F)(F)F)c(-c5c(C)ccc6[nH]ncc56)c(C5CC5)cc34)CC2)C1 | 1.4
C=CC(=O)N1CC2(CCN(c3nc(OC4CC5(CCN(CCOC)CC5)C4)nc4c(OCC(F)(F)F)c(-c5c(C)ccc6[nH]ncc56)c(C5CC5)cc34)CC2)C1 | 1.5
C=CC(=O)N1CC2(CCN(c3nc(OC4CCN(CCOC)CC4)nc4c(OCC(F)(F)F)c(-c5c(C)ccc6[nH]ncc56)c(C5CC5)cc34)CC2)C1 [B, reference compound] | 4.6

----------
Tested on: pERK level in H358 cells
Experiment: pERK and ERK protein content assay in H358 cells (ELISA)
Format: cell-based
Conditions: Homo sapiens, NCI-H358, compound 1 μM, 24 h, pERK/ERK ratio compared with DMSO group, read-out: Inhibition rate (%) of pERK level
Procedure: H358 cells were seeded in a 24-well plate. After one day of growth, a test compound (at a concentration of 1 μM) was added. After 24 h of action of the compound, the cells were lysed, and the cell lysate was transferred to a 96-well ELISA plate. The levels of pERK and ERK in the lysate were measured using an ELISA kit (abcam 176660). The ratio of pERK to ERK was calculated and compared with that of the DMSO group, and the percentage of inhibition of pERK activity by the compound was calculated.
inhibition at 1 µM overview
Value type: inhibition at 1 µM

Molecule | Value type | Recorded value
C=CC(=O)N1CC2(CCN(c3nc(N4CC(N5CC(F)C5)C4)nc4c(OCC(F)(F)F)c(-c5c(C)ccc6[nH]ncc56)c(C5CC5)cc34)CC2)C1 | inhibition at 1 µM | > 90%
C=CC(=O)N1CC2(CCN(c3nc(N4CC(N5CC[C@@H](C#N)C5)C4)nc4c(OCC(F)(F)F)c(-c5c(C)ccc6[nH]ncc56)c(C5CC5)cc34)CC2)C1 | inhibition at 1 µM | > 90%
C=C(F)C(=O)N1CC2(CCN(c3nc(N4CCC5(CC4)CN(CCOC)C5)nc4c(OCC(F)(F)F)c(-c5c(C)ccc6[nH]ncc56)c(C5CC5)cc34)CC2)C1 | inhibition at 1 µM | 50 to 90%
C=C(F)C(=O)N1CC2(CCN(c3nc(N4CC5(CCN(CC(F)(F)F)CC5)C4)nc4c(OCC(F)(F)F)c(-c5c(C)ccc6[nH]ncc56)c(C5CC5)cc34)CC2)C1 | inhibition at 1 µM | 50 to 90%
C=CC(=O)N1CC2(CCN(c3nc(N4CC(N(C)CCOC)C4)nc4c(OCC(F)(F)F)c(-c5c(C)ccc6[nH]ncc56)c(C5CC5)cc34)CC2)C1 | inhibition at 1 µM | > 90%
C=CC(=O)N1CC2(CCN(c3nc(OC[C@@H]4COCCN4C)nc4c(OCC(F)(F)F)c(-c5c(C)ccc6[nH]ncc56)c(C5CC5)cc34)CC2)C1 | inhibition at 1 µM | 50 to 90%
C=CC(=O)N1CC2(CCN(c3nc(N4CC(N5CC(OCC(F)(F)F)C5)C4)nc4c(OCC(F)(F)F)c(-c5c(C)ccc6[nH]ncc56)c(C5CC5)cc34)CC2)C1 | inhibition at 1 µM | 50 to 90%
C=C(F)C(=O)N1CC2(CCN(c3nc(OC4C5CC4CN(CCOC)C5)nc4c(OCC(F)(F)F)c(-c5c(C)ccc6[nH]ncc56)c(C5CC5)cc34)CC2)C1 (centres unmarked) | inhibition at 1 µM | 50 to 90%
C=CC(=O)N1CC2(CCN(c3nc(N4CC(N5CCC5)C4)nc4c(OCC(F)(F)F)c(-c5c(C)ccc6[nH]ncc56)c(C5(C)CC5)cc34)CC2)C1 | inhibition at 1 µM | > 90%
C=CC(=O)N1CC2(CCN(c3nc(OC4CC5CCC(C4)S5(=O)=O)nc4c(OCC(F)(F)F)c(-c5c(C)ccc6[nH]ncc56)c(C5CC5)cc34)CC2)C1 (centres unmarked) | inhibition at 1 µM | > 90%
C=C(F)C(=O)N1CC2(CCN(c3nc(N4CC5(CN(CCOC)C5)C4)nc4c(OCC(F)(F)F)c(-c5c(C)ccc6[nH]ncc56)c(C5CC5)cc34)CC2)C1 | inhibition at 1 µM | > 90%

----------
Here, each record is paired with measured F data.
Assay: Pharmacokinetic evaluation in mice
Type: in vivo, male ICR mice
Settings: po 10 mg/kg vs iv 2 mg/kg

Compound | U | F
C=CC(=O)N1CC2(CCN(c3nc(N4CC(N(C)C)C4)nc4c(OCC(F)(F)F)c(-c5c(C)ccc6[nH]ncc56)c(C=C)cc34)CC2)C1 [Compound C, reference compound] | % | 24.6
C=CC(=O)N1CC2(CCN(c3nc(OC4CCN(CCOC)CC4)nc4c(OCC(F)(F)F)c(-c5c(C)ccc6[nH]ncc56)c(C5CC5)cc34)CC2)C1 [B, reference compound] | % | 26.5
C=C(F)C(=O)N1CC2(CCN(c3nc(OC4CCN(CCOC)CC4)nc4c(OCC(F)(F)F)c(-c5c(C)ccc6[nH]ncc56)c(C5CC5)cc34)CC2)C1 [Compound 1] | % | 29.0
